Molecular target: hD3R (Homo sapiens, UniProt P35462)
Sequence (P35462 whole entry): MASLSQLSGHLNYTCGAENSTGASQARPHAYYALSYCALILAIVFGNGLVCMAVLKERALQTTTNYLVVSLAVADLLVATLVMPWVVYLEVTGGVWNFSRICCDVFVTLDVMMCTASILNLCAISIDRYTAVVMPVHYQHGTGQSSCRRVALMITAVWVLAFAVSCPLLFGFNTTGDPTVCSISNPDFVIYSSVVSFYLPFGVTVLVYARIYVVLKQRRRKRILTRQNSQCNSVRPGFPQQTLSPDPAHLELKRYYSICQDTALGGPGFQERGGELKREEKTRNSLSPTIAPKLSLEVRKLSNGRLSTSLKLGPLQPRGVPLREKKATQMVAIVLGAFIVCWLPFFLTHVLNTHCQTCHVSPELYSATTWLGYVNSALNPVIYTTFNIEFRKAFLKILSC
Measured Ki, listed per entry.
Give just the number in nM; leave the unit off.

Below, each entry is followed by its recorded Ki result.
1) CC[C@H](C)[C@H](NC(=O)[C@H](Cc1ccc(O)cc1)NC(=O)[C@@H]1CCCN1C(=O)[C@H](CCCNC(=N)N)NC(=O)[C@H](CCCNC(=N)N)NC(=O)CCOCCOCCOCCOCCOCCOCCNC(=O)CCOCCOCCOCCOCCOCCOCCNC(=O)c1ccc(-c2ccc(-n3cc(CCCCN4CCN(c5ccccc5OC)CC4)nn3)cc2)cc1)C(=O)N[C@@H](CC(C)C)C(=O)O :: 5.5
2) CCc1cc(Cl)c(OC)c(C(=O)NC[C@@H]2C[C@@H](OCCCCc3cn(-c4ccc(-c5ccc(C(=O)NCCOCCOCCOCCOCCOCCOCCC(=O)NCCOCCOCCOCCOCCOCCOCCC(=O)NCCOCCOCCOCCOCCOCCOCCC(=O)NCCOCCOCCOCCOCCOCCOCCC(=O)N[C@@H](CCCNC(=N)N)C(=O)N[C@@H](CCCNC(=N)N)C(=O)N6CCC[C@H]6C(=O)N[C@@H](Cc6ccc(O)cc6)C(=O)N[C@H](C(=O)N[C@@H](CC(C)C)C(=O)O)[C@@H](C)CC)cc5)cc4)nn3)CN2CC)c1O :: 1.6
3) CCCN(CCCCc1cn(-c2ccc(-c3ccc(C(=O)NCCOCCOCCOCCOCCOCCOCCC(=O)NCCOCCOCCOCCOCCOCCOCCC(=O)N[C@@H](CCCNC(=N)N)C(=O)N[C@@H](CCCNC(=N)N)C(=O)N4CCC[C@H]4C(=O)N(CCc4ccc(O)cc4)CC(=O)N[C@H](C(=O)N[C@@H](CC(C)C)C(=O)O)[C@@H](C)CC)cc3)cc2)nn1)C1Cc2ccccc2C1 :: 1.1
4) CC[C@H](C)[C@H](NC(=O)[C@H](Cc1ccc(O)cc1)NC(=O)[C@@H]1CCCN1C(=O)[C@H](CCCNC(=N)N)NC(=O)[C@H](CCCNC(=N)N)NC(=O)CCOCCOCCOCCOCCOCCOCCNC(=O)c1ccc(-c2ccc(-n3cc(CCCCN4CCN(c5ccccc5OC)CC4)nn3)cc2)cc1)C(=O)N[C@@H](CC(C)C)C(=O)O :: 2.7

Now consider a different compound.
Task: Fill blank: measured Ki of the compound `CC[C@H](C)[C@H](NC(=O)CN(CCc1ccc(O)cc1)C(=O)[C@@H]1CCCN1C(=O)[C@H](CCCNC(=N)N)NC(=O)[C@H](CCCNC(=N)N)NC(=O)CCOCCOCCOCCOCCOCCOCCNC(=O)c1ccc(-c2ccc(-n3cc(CCCCN4CCN(c5ccccc5OC)CC4)nn3)cc2)cc1)C(=O)N[C@@H](CC(C)C)C(=O)O` is ____.
Result: 5.8

----------
Measured pKi, listed per entry.
Molecular target: hD4.4R (Homo sapiens, UniProt P21917)
Sequence (P21917 1-419): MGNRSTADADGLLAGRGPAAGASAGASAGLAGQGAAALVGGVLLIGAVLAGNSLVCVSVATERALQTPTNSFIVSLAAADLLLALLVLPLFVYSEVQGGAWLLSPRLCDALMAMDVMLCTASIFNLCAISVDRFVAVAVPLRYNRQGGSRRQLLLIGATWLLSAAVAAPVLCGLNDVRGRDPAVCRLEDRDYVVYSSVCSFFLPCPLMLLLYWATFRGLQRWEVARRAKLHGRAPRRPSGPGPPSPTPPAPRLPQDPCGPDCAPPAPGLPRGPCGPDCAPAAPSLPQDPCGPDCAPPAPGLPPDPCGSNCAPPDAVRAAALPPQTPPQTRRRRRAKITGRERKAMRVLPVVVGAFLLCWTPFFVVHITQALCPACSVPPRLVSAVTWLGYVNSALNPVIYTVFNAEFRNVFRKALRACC
Keep in mind that pKi stands for -log10 of concentration in molar terms.

Below, each entry is followed by its recorded pKi result.
1. CC[C@H](C)[C@H](NC(=O)[C@H](Cc1ccc(O)cc1)NC(=O)[C@@H]1CCCN1C(=O)[C@H](CCCNC(=N)N)NC(=O)[C@H](CCCNC(=N)N)NC(=O)CCOCCOCCOCCOCCOCCOCCNC(=O)c1ccc(-c2ccc(-n3cc(CCCCN4CCN(c5ccccc5OC)CC4)nn3)cc2)cc1)C(=O)N[C@@H](CC(C)C)C(=O)O [2a] :: 7.21
2. CCCN(CCCCc1cn(-c2ccc(-c3ccc(C(=O)NCCOCCOCCOCCOCCOCCOCCC(=O)NCCOCCOCCOCCOCCOCCOCCC(=O)NCCOCCOCCOCCOCCOCCOCCC(=O)N[C@@H](CCCNC(=N)N)C(=O)N[C@@H](CCCNC(=N)N)C(=O)N4CCC[C@H]4C(=O)N[C@@H](Cc4ccc(O)cc4)C(=O)N[C@H](C(=O)N[C@@H](CC(C)C)C(=O)O)[C@@H](C)CC)cc3)cc2)nn1)C1Cc2ccccc2C1 [3c] :: 7.10
3. CCCN(CCCCc1cn(-c2ccc(-c3ccc(C(=O)NCCOCCOCCOCCOCCOCCOCCC(=O)NCCOCCOCCOCCOCCOCCOCCC(=O)NCCOCCOCCOCCOCCOCCOCCC(=O)NCCOCCOCCOCCOCCOCCOCCC(=O)N[C@@H](CCCNC(=N)N)C(=O)N[C@@H](CCCNC(=N)N)C(=O)N4CCC[C@H]4C(=O)N[C@@H](Cc4ccc(O)cc4)C(=O)N[C@H](C(=O)N[C@@H](CC(C)C)C(=O)O)[C@@H](C)CC)cc3)cc2)nn1)C1Cc2ccccc2C1 [3d] :: 6.74
4. CC[C@H](C)[C@H](NC(=O)[C@H](Cc1ccc(O)cc1)NC(=O)[C@@H]1CCCN1C(=O)[C@H](CCCNC(=N)N)NC(=O)[C@H](CCCNC(=N)N)NC(=O)CCOCCOCCOCCOCCOCCOCCNC(=O)CCOCCOCCOCCOCCOCCOCCNC(=O)c1ccc(-c2ccc(-n3cc(CCCCN4CCN(c5ccccc5OC)CC4)nn3)cc2)cc1)C(=O)N[C@@H](CC(C)C)C(=O)O [2b] :: 6.74
5. CC[C@H](C)[C@H](NC(=O)[C@H](Cc1ccc(O)cc1)NC(=O)[C@@H]1CCCN1C(=O)[C@H](CCCNC(=N)N)NC(=O)[C@H](CCCNC(=N)N)NC(=O)CCOCCOCCOCCOCCOCCOCCNC(=O)CCOCCOCCOCCOCCOCCOCCNC(=O)CCOCCOCCOCCOCCOCCOCCNC(=O)CCOCCOCCOCCOCCOCCOCCNC(=O)c1ccc(-c2ccc(-n3cc(CCCCN4CCN(c5ccccc5OC)CC4)nn3)cc2)cc1)C(=O)N[C@@H](CC(C)C)C(=O)O [2d] :: 6.43
6. CC[C@H](C)[C@H](NC(=O)CN(CCc1ccc(O)cc1)C(=O)[C@@H]1CCCN1C(=O)[C@H](CCCNC(=N)N)NC(=O)[C@H](CCCNC(=N)N)NC(=O)CCOCCOCCOCCOCCOCCOCCNC(=O)CCOCCOCCOCCOCCOCCOCCNC(=O)c1ccc(-c2ccc(-n3cc(CCCCN4CCN(c5ccccc5OC)CC4)nn3)cc2)cc1)C(=O)N[C@@H](CC(C)C)C(=O)O [2f] :: 6.59

Now consider a different molecule.
Task: Fill blank: measured pKi of the molecule CCc1cc(Cl)c(OC)c(C(=O)NC[C@@H]2C[C@@H](OCCCCc3cn(-c4ccc(-c5ccc(C(=O)NCCOCCOCCOCCOCCOCCOCCC(=O)NCCOCCOCCOCCOCCOCCOCCC(=O)NCCOCCOCCOCCOCCOCCOCCC(=O)NCCOCCOCCOCCOCCOCCOCCC(=O)N[C@@H](CCCNC(=N)N)C(=O)N[C@@H](CCCNC(=N)N)C(=O)N6CCC[C@H]6C(=O)N[C@@H](Cc6ccc(O)cc6)C(=O)N[C@H](C(=O)N[C@@H](CC(C)C)C(=O)O)[C@@H](C)CC)cc5)cc4)nn3)CN2CC)c1O [1d] is ____.
Result: 6.36

----------
Molecular target: D2LR/NTS1R (Homo sapiens, UniProt P14416+P30989)
Sequence (P14416 whole entry): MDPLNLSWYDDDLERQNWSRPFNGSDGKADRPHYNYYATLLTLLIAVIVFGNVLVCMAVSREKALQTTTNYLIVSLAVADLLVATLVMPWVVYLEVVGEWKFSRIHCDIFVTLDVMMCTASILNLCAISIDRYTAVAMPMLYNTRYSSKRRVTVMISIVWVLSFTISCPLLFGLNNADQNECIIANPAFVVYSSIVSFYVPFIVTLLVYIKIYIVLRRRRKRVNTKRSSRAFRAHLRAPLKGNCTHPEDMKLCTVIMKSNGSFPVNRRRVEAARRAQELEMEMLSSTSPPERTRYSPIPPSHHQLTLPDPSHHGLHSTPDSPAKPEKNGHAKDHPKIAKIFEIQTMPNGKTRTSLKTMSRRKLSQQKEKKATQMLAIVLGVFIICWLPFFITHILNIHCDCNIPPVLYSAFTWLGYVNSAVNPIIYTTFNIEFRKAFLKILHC
Sequence (P30989 whole entry): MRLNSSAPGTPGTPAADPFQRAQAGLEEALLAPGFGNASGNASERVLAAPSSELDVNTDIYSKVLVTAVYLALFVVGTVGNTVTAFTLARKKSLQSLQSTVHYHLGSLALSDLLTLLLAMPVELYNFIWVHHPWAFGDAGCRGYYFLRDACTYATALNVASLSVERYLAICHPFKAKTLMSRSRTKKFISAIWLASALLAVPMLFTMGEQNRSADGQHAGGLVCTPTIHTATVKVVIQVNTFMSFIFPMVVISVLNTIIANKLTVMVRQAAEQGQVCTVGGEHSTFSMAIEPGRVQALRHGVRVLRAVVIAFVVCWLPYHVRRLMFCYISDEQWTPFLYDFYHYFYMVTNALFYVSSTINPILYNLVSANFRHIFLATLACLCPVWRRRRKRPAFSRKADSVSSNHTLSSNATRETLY
Experiment: [3H]spiperone displacement, membranes from HEK 293 T cells coexpressing D2LR and NTS1R
Conditions: D2LR:NTS1R 1:2; mean ± s.e.m.
Label rule met when Fraction high (fraction representing the high-affinity binding site) is strictly below 60%; at or above that, label rule not met.

Consider the worked cases shown below.
1) CCCN(CCCCc1cn(-c2ccc(-c3ccc(C(=O)NCCOCCOCCOCCOCCOCCOCCC(=O)NCCOCCOCCOCCOCCOCCOCCC(=O)NCCOCCOCCOCCOCCOCCOCCC(=O)N[C@@H](CCCNC(=N)N)C(=O)N[C@@H](CCCNC(=N)N)C(=O)N4CCC[C@H]4C(=O)N[C@@H](Cc4ccc(O)cc4)C(=O)N[C@H](C(=O)N[C@@H](CC(C)C)C(=O)O)[C@@H](C)CC)cc3)cc2)nn1)C1Cc2ccccc2C1 [3c] :: rule met
2) CC[C@H](C)[C@H](NC(=O)[C@H](Cc1ccc(O)cc1)NC(=O)[C@@H]1CCCN1C(=O)[C@H](CCCNC(=N)N)NC(=O)[C@H](CCCNC(=N)N)NC(=O)CCOCCOCCOCCOCCOCCOCCNC(=O)CCOCCOCCOCCOCCOCCOCCNC(=O)CCOCCOCCOCCOCCOCCOCCNC(=O)CCOCCOCCOCCOCCOCCOCCNC(=O)c1ccc(-c2ccc(-n3cc(CCCCN4CCN(c5ccccc5OC)CC4)nn3)cc2)cc1)C(=O)N[C@@H](CC(C)C)C(=O)O [2d] :: rule not met
3) CCc1cc(Cl)c(OC)c(C(=O)NC[C@@H]2C[C@@H](OCCCCc3cn(-c4ccc(-c5ccc(C(=O)NCCOCCOCCOCCOCCOCCOCCC(=O)NCCOCCOCCOCCOCCOCCOCCC(=O)N[C@@H](CCCNC(=N)N)C(=O)N[C@@H](CCCNC(=N)N)C(=O)N6CCC[C@H]6C(=O)N[C@@H](Cc6ccc(O)cc6)C(=O)N[C@H](C(=O)N[C@@H](CC(C)C)C(=O)O)[C@@H](C)CC)cc5)cc4)nn3)CN2CC)c1O [1b] :: rule met
4) CCc1cc(Cl)c(OC)c(C(=O)NC[C@@H]2C[C@@H](OCCCCc3cn(-c4ccc(-c5ccc(C(=O)NCCOCCOCCOCCOCCOCCOCCC(=O)NCCOCCOCCOCCOCCOCCOCCC(=O)NCCOCCOCCOCCOCCOCCOCCC(=O)N[C@@H](CCCNC(=N)N)C(=O)N[C@@H](CCCNC(=N)N)C(=O)N6CCC[C@H]6C(=O)N[C@@H](Cc6ccc(O)cc6)C(=O)N[C@H](C(=O)N[C@@H](CC(C)C)C(=O)O)[C@@H](C)CC)cc5)cc4)nn3)CN2CC)c1O [1c] :: rule not met
5) CC[C@H](C)[C@H](NC(=O)[C@H](Cc1ccc(O)cc1)NC(=O)[C@@H]1CCCN1C(=O)[C@H](CCCNC(=N)N)NC(=O)[C@H](CCCNC(=N)N)NC(=O)CCOCCOCCOCCOCCOCCOCCNC(=O)CCOCCOCCOCCOCCOCCOCCNC(=O)c1ccc(-c2ccc(-n3cc(CCCCN4CCN(c5ccccc5OC)CC4)nn3)cc2)cc1)C(=O)N[C@@H](CC(C)C)C(=O)O [2b] :: rule met

Task: Please let me know if CCCN(CCCCc1cn(-c2ccc(-c3ccc(C(=O)NCCOCCOCCOCCOCCOCCOCCC(=O)NCCOCCOCCOCCOCCOCCOCCC(=O)NCCOCCOCCOCCOCCOCCOCCC(=O)NCCOCCOCCOCCOCCOCCOCCC(=O)N[C@@H](CCCNC(=N)N)C(=O)N[C@@H](CCCNC(=N)N)C(=O)N4CCC[C@H]4C(=O)N[C@@H](Cc4ccc(O)cc4)C(=O)N[C@H](C(=O)N[C@@H](CC(C)C)C(=O)O)[C@@H](C)CC)cc3)cc2)nn1)C1Cc2ccccc2C1 [3d] shows Fraction high (fraction representing the high-affinity binding site) below 60%.
Result: rule met

Task: Then CCc1cc(Cl)c(OC)c(C(=O)NC[C@@H]2C[C@@H](OCCCCc3cn(-c4ccc(-c5ccc(C(=O)NCCOCCOCCOCCOCCOCCOCCC(=O)NCCOCCOCCOCCOCCOCCOCCC(=O)NCCOCCOCCOCCOCCOCCOCCC(=O)NCCOCCOCCOCCOCCOCCOCCC(=O)N[C@@H](CCCNC(=N)N)C(=O)N[C@@H](CCCNC(=N)N)C(=O)N6CCC[C@H]6C(=O)N[C@@H](Cc6ccc(O)cc6)C(=O)N[C@H](C(=O)N[C@@H](CC(C)C)C(=O)O)[C@@H](C)CC)cc5)cc4)nn3)CN2CC)c1O [1d] ?
Result: rule met
